Values compiled from ChEMBL document CHEMBL2010789.

Tested on: Porphyromonas gingivalis
experiment_summary: Inhibition of Porphyromonas gingivalis recombinant SerB653 phosphatase expressed in Escherichia coli BL21 using phosphoserine as substrate at 50 uM after 1 hr by malachite green colorimetric assay
quantity: inhibition (%)

Solved entries (count: 3):
{"columns": ["structure_as_smiles", "quantity", "assay_value"],
 "data": [
  ["CC(=O)c1c(Nc2ccc([N+](=O)[O-])cc2)[nH]c2c([N+](=O)[O-])cc(Cl)cc2c1=O", "inhibition", 87],
  ["CC(=O)c1c(Nc2ccc(Cl)cc2Cl)[nH]c2c(C(F)(F)F)cc(Cl)cc2c1=O", "inhibition", 99],
  ["CC(=O)c1c(Nc2cccc(C)c2)[nH]c2c(Cl)c(Cl)ccc2c1=O", "inhibition", 1.6]
]}

(1) CCC(=O)c1c(Nc2cc(F)cc(F)c2)[nH]c2c(Cl)ccc([N+](=O)[O-])c2c1=O
(2) CC(=O)c1c(Nc2ccc(F)c(F)c2F)[nH]c2c(Cl)ccc(C)c2c1=O
Q: Which shows the larger inhibition value: 1 or 2 ? Mark your selection by writing its label.
A: 1
(1: 92.7%, 2: 32.4%)
